Just for reference, PubChem BioAssay (NCI) is where these values come from.

Tested on: ACHN renal
Test: NCI-60 one-dose screen, 48 h (100 = growth as untreated, 0 = no growth, -100 = all killed)
Conditions: 10 µM unless noted
The panel holds about 83,000 compounds, 20% with a hit somewhere; the sample as a whole holds those more often.
This listing pairs compounds with measured growth.
All answers are understood in %, so give the number only.

compound=C=C1C(=O)C2CCN1CC2 assay_value=86.8

Okay, now this compound:
Q: Param readout = growth; param system = ACHN renal; param query = "O=S(=O)(O)c1cccnc1" ; response: value
A: 105

---

This listing pairs molecules with measured growth.
System: NCI-H226 lung
Test: NCI-60 one-dose screen, 48 h (100 = growth as untreated, 0 = no growth, -100 = all killed)
Conditions: 10 µM unless noted
The panel holds about 83,000 compounds, 20% with a hit somewhere; the sample as a whole holds those more often. Activity calls are given as the source filed them. Rule for the calls: active = growth percent below 10; inactive = the rest.

Answered cases to consult:
molecule="NNC(=O)N/N=C1\\C(=O)N(c2nccs2)C(=O)C(=O)C1c1nc2ccccc2s1 (stereo not drawn)" readout_type=growth assay_value="89.1% (inactive)"
molecule=CN(C)c1ccc2c(N(C)C)cc(N(C)C)nc2c1 readout_type=growth assay_value="83.2% (inactive)"
molecule=COc1ccc2c(ccc[n+]2C)c1 readout_type=growth assay_value="110% (inactive)"

Q: Please give the measured growth for this molecule: "C=CC(C)(C)n1cc(C2=C(O)C(=O)C(c3cn(C(C)(C)C=C)c4ccccc34)=C(O)C2=O)c2ccccc21"
A: 89.9% (inactive)

Q: Item: "O=C(Nc1c(Cl)cc(Cl)cc1Cl)ON=C1CCCCC1"
A: 99.4% (inactive)

Q: Item: "Cc1onc(-c2c(F)cccc2Cl)c1-c1ncc(-c2ccc(Br)cc2)o1"
A: 73.1% (inactive)

Q: Item: "CC1(C)CC(=O)C=C(N)C1"
A: 103% (inactive)

Q: Item: CC(=O)C1C(=O)C(=O)N(c2ccc(Cl)c(Cl)c2)C1=O (stereo not drawn)
A: 106% (inactive)

Q: Item: "c1cc(CNCCNCc2ccncc2)ccn1"
A: 103% (inactive)

Q: Item: CCN1CCCC(N2c3ccccc3Sc3ccccc32)C1 (stereo not drawn)
A: 113% (inactive)

Q: Item: "O=C(O)CCCCCNC(=O)OCc1ccccc1"
A: 105% (inactive)

---

Test system: NCI-H522 lung
Assay: NCI-60 one-dose screen, 48 h (100 = growth as untreated, 0 = no growth, -100 = all killed)
Conditions: 10 µM unless noted
The panel holds about 83,000 compounds, 20% with a hit somewhere; the sample as a whole holds those more often.
READOUT TYPE: growth (%)
All answers are understood in %, so give the number only.

Answered cases to consult:
molecule=CCOC(=N)CC(=O)Nc1cccc(C)c1Cl u=% assay_value=110
molecule=CC(=O)NCNC(C)=O u=% assay_value=119

Q: Please give the measured growth for this molecule: "CC(=O)CSc1ncnc2nc[nH]c12"
A: 72.8

Q: Item: "C[C@H](CCC[C@H](C)OS(=O)(=O)c1ccccc1)OS(=O)(=O)c1ccccc1"
A: 86.8

Q: Item: "O=c1[nH]c(=O)c2cc(Cl)cc(Cl)c2[nH]1"
A: 99.7

Q: Item: "CCOP(=O)(OCC)/C(=C\N1C(=O)CC(=O)NC1=S)C(=O)OC"
A: 104

Q: Item: "COc1nc2ccccc2s1"
A: 96.3
